Entries and their inhibition of growth at 25 µM values follow.
# Tested on: SW480
# ASSAY_SUMMARY: Growth inhibition of human SW480 cells assessed as reduction in cell growth at 25uM after 72 hrs by MTT assay
# Type: functional
# APPLIED_CONDITIONS: SW480, 72 h, read-out: GI
Provide the reading as a plain figure in %.

Query :: // query inhibition of growth at 25 µM value for entry N#C/C(=C\c1c[nH]c2ccc(C#N)cc12)c1ccc(Cl)c(Cl)c1
Result :: 43

Query :: Tell me the measured inhibition of growth at 25 µM of N#C/C(=C\c1cc2ccccc2o1)c1ccc(Cl)c(Cl)c1 , please.
Result :: 43

Query :: What value of inhibition of growth at 25 µM has been reported for the following compound? Cc1ccc(/C=C(\C#N)c2ccc(Cl)c(Cl)c2)o1
Result :: 47

###

# Tested on: DU-145
# ASSAY_SUMMARY: Growth inhibition of human DU145 cells assessed as reduction in cell growth after 72 hrs by MTT assay
# Type: functional
# APPLIED_CONDITIONS: DU-145, 72 h
Reported GI50 values follow for various molecules
Numeric answer only, unit µM assumed.

N#C/C(=C\c1c[nH]c2ccc(Br)cc12)c1ccc(Cl)c(Cl)c1 : 13
N#C/C(=C\c1ccc(F)cc1)c1ccc(Cl)c(Cl)c1 : 18
N#C/C(=C\c1c[nH]c2ccccc12)c1ccc(Cl)c(Cl)c1 : 3.1

Query :: Request: GI50, test system DU-145, entry Cc1[nH]c2ccccc2c1/C=C(\C#N)c1ccc(Cl)c(Cl)c1
Result :: 5.6

Query :: Form entry - test system: DU-145; read-out: GI50; molecule: N#C/C(=C\c1ccc2[nH]ccc2c1)c1ccc(Cl)c(Cl)c1
Result :: 1.04

Query :: Please state recorded GI50 (tested on DU-145) of COc1ccc(/C=C(\C#N)c2ccc(Cl)c(Cl)c2)cc1
Result :: 1.4

###

# ASSAY_SUMMARY: Growth inhibition of mouse SMA cells assessed as reduction in cell growth after 72 hrs by MTT assay
# Format: functional
MEASURE_NAME: GI50 (µM)
Use µM as the unit, but write only the number.

Worked cases, GI50 given:
N#C/C(=C\c1c[nH]c2c1ccc1ccccc12)c1ccc(Cl)c(Cl)c1 : 5.9
N#C/C(=C\c1ccco1)c1ccc(Cl)c(Cl)c1 : 36
N#C/C(=C\c1c[nH]c2ccc(Cl)cc12)c1ccc(Cl)c(Cl)c1 : 6.7
N#C/C(=C\c1c[nH]c2ccc(Br)cc12)c1ccc(Cl)c(Cl)c1 : 9.2
Cc1ccc2[nH]cc(/C=C(\C#N)c3ccc(Cl)c(Cl)c3)c2c1 : 4.1

Query :: If you can, please state the reported GI50 value of N#C/C(=C\c1c[nH]c2ccccc12)c1ccc(Cl)c(Cl)c1 .
Result :: 1.3

Query :: What value of GI50 has been reported for the following compound? N#C/C(=C\c1ccc(C(F)(F)F)cc1)c1ccc(Cl)c(Cl)c1
Result :: 45

Query :: // query GI50 value for entry Cc1[nH]c2ccccc2c1/C=C(\C#N)c1ccc(Cl)c(Cl)c1
Result :: 2.9

Query :: Give the measured GI50 of N#C/C(=C\c1ccc2[nH]ccc2c1)c1ccc(Cl)c(Cl)c1 .
Result :: 0.74

###

# System: MIA PaCa-2
# ASSAY_SUMMARY: Growth inhibition of human MIAPaCa2 cells assessed as reduction in cell growth after 72 hrs by MTT assay
# Format: functional
# APPLIED_CONDITIONS: MIA PaCa-2, 72 h
MEASURE_NAME: GI50 (µM)
Output spec: scalar in µM, unitless text.

N#C/C(=C\c1ccc([N+](=O)[O-])cc1)c1ccc(Cl)c(Cl)c1 : 27
N#C/C(=C\c1c[nH]c2ccccc12)c1ccc(Cl)c(Cl)c1 : 1.6
N#C/C(=C\c1ccc(C(F)(F)F)cc1)c1ccc(Cl)c(Cl)c1 : 35

Query :: Data request, read-out GI50, for Cc1[nH]c2ccccc2c1/C=C(\C#N)c1ccc(Cl)c(Cl)c1
Result :: 2.4

Query :: Quick one: GI50 of Cc1ccc2[nH]cc(/C=C(\C#N)c3ccc(Cl)c(Cl)c3)c2c1 ?
Result :: 3.7

Query :: Which GI50 value is on record for N#C/C(=C\c1c[nH]c2ccc(Br)cc12)c1ccc(Cl)c(Cl)c1 ?
Result :: 9

Query :: Bench note: what GI50 did N#C/C(=C\c1ccc(F)cc1)c1ccc(Cl)c(Cl)c1 show?
Result :: 11

Query :: Any idea what its GI50 is? The compound is N#C/C(=C\c1c[nH]c2ccc(Cl)cc12)c1ccc(Cl)c(Cl)c1
Result :: 11

Query :: Given COc1ccc(/C=C(\C#N)c2ccc(Cl)c(Cl)c2)cc1 , state its recorded GI50.
Result :: 0.7

Query :: GI50 for N#C/C(=C\c1c[nH]c2c1ccc1ccccc12)c1ccc(Cl)c(Cl)c1 ?
Result :: 6.1

Query :: Which GI50 is reported for this compound? N#C/C(=C\c1ccco1)c1ccc(Cl)c(Cl)c1
Result :: 46

Query :: // GI50 lookup, key: N#C/C(=C\c1ccc2[nH]ccc2c1)c1ccc(Cl)c(Cl)c1
Result :: 0.5

###

# Test system: A2780
# ASSAY_SUMMARY: Growth inhibition of human A2780 cells assessed as reduction in cell growth after 72 hrs by MTT assay
# Assay type: functional
# APPLIED_CONDITIONS: A2780, 72 h
Simple rule here: GI50 less than 2 µM is criterion met, otherwise criterion not met.

Study these solved cases before continuing.
N#C/C(=C\c1c[nH]c2ccccc12)c1ccc(Cl)c(Cl)c1 : criterion met
N#C/C(=C\c1c[nH]c2ccc(Br)cc12)c1ccc(Cl)c(Cl)c1 : criterion not met

Query :: GI50 strictly < 2 µM for this compound? N#C/C(=C\c1ccc(C(F)(F)F)cc1)c1ccc(Cl)c(Cl)c1
Result :: criterion not met

Query :: Field: below-cutoff. Rule: recorded GI50 strictly less than 2 µM. Subject: Cc1[nH]c2ccccc2c1/C=C(\C#N)c1ccc(Cl)c(Cl)c1
Result :: criterion not met

Query :: Threshold test, GI50 < 2 µM: Cc1ccc2[nH]cc(/C=C(\C#N)c3ccc(Cl)c(Cl)c3)c2c1
Result :: criterion not met

Query :: Here's an entry: N#C/C(=C\c1c[nH]c2ccc(Cl)cc12)c1ccc(Cl)c(Cl)c1 . Is its GI50 below 2 µM?
Result :: criterion not met

###

Below, each entry is listed with its recorded log10(GI50).
# Tested on: A2780
# ASSAY_SUMMARY: Growth inhibition of human A2780 cells assessed as reduction in cell growth after 72 hrs by MTT assay
# Assay type: functional
# APPLIED_CONDITIONS: A2780, 72 h
Friendly reminder: values = log10 of GI50, unit µM.

Some entries whose results are on file:
N#C/C(=C\c1ccc([N+](=O)[O-])cc1)c1ccc(Cl)c(Cl)c1 : 1.08
COc1ccc(/C=C(\C#N)c2ccc(Cl)c(Cl)c2)cc1 : -0.15
N#C/C(=C\c1c[nH]c2c1ccc1ccccc12)c1ccc(Cl)c(Cl)c1 : 0.57
N#C/C(=C\c1ccc2[nH]ccc2c1)c1ccc(Cl)c(Cl)c1 : -0.39

Query :: Recorded log10(GI50) for N#C/C(=C\c1ccco1)c1ccc(Cl)c(Cl)c1 with A2780, please?
Result :: 1.58

Query :: Reported log10(GI50) for A2780, given N#C/C(=C\c1ccc(F)cc1)c1ccc(Cl)c(Cl)c1 ?
Result :: 0.98

###

# Test system: MCF7
# ASSAY_SUMMARY: Growth inhibition of human MCF7 cells assessed as reduction in cell growth at 25uM after 72 hrs by MTT assay
# Format: functional
# APPLIED_CONDITIONS: MCF7, 72 h, read-out: GI
MEASURE_NAME: inhibition of growth at 25 µM (%)
Could you give me the number in %? Just the number is fine.

N#C/C(=C\c1cc2ccccc2o1)c1ccc(Cl)c(Cl)c1 : 40
N#C/C(=C\c1ccc(CO)o1)c1ccc(Cl)c(Cl)c1 : 27
O=C(O)/C(=C\c1ccc([N+](=O)[O-])cc1)c1ccc(Cl)c(Cl)c1 : 11
Cc1ccc(/C=C(\C#N)c2ccc(Cl)c(Cl)c2)o1 : 68

# input for lookup
Query :: What does the record list as inhibition of growth at 25 µM for N#C/C(=C\c1c[nH]c2ccc(C#N)cc12)c1ccc(Cl)c(Cl)c1 ?
Result :: 38

###

# System: DU-145
# ASSAY_SUMMARY: Growth inhibition of human DU145 cells assessed as reduction in cell growth after 72 hrs by MTT assay
# Format: functional
# APPLIED_CONDITIONS: DU-145, 72 h
Listed molecules paired with reported GI50
Just the number please, in µM, no unit attached.

Completed entries (count: 3):
N#C/C(=C\c1c[nH]c2c1ccc1ccccc12)c1ccc(Cl)c(Cl)c1 : 8.7
N#C/C(=C\c1ccc(C(F)(F)F)cc1)c1ccc(Cl)c(Cl)c1 : 45
N#C/C(=C\c1ccc([N+](=O)[O-])cc1)c1ccc(Cl)c(Cl)c1 : 18

Query :: What measured GI50 goes with Cc1ccc2[nH]cc(/C=C(\C#N)c3ccc(Cl)c(Cl)c3)c2c1 ?
Result :: 7.4

Query :: Which value of GI50 has been reported for N#C/C(=C\c1c[nH]c2ccc(Cl)cc12)c1ccc(Cl)c(Cl)c1 in the records?
Result :: 12

Query :: Look up GI50 for this molecule: N#C/C(=C\c1ccco1)c1ccc(Cl)c(Cl)c1
Result :: 42
